All values here come from paper PMC8162404.

molecular target: Gal-1 (Homo sapiens); construct: made in house; host or cells: E. coli BL21(DE3); experiment: Pull-down assay with immobilized protein and LSM libraries; type: binding; conditions: H12 library; 1:1 binding assumed; read-out: Surface mapping KD (apparent)
Sequence (P09382 whole entry): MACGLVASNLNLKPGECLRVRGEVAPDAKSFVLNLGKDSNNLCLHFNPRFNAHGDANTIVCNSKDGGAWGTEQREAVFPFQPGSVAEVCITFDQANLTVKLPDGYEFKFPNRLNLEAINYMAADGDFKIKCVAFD
MEASURE: pKd
# log scale: pKd equals minus log10 of the concentration in mol/L

For orientation, consider the following solved cases.
- COMPOUND: "C[C@@H](O)[C@@H](CC(=O)N[C@H]1CCC[C@@H]1C(=O)N[C@H]1CCC[C@@H]1C(N)=O)NC(=O)[C@H]1CCC[C@@H]1NC(=O)[C@H]1CCC[C@@H]1NC(=O)C[C@H](CC(=O)O)NC(=O)[C@H]1CCC[C@@H]1NC(=O)[C@H]1CCC[C@@H]1N [H12 DT]"
  TEST_TARGET: "Gal-1 (Homo sapiens)"
  EXPERIMENTAL_RESULT: 3.40
- COMPOUND: "CSCC[C@@H](CC(=O)N[C@H]1CCC[C@@H]1C(=O)N[C@H]1CCC[C@@H]1C(=O)N[C@@H](CCC(=O)O)CC(=O)N[C@H]1CCC[C@@H]1C(=O)N[C@H]1CCC[C@@H]1C(N)=O)NC(=O)[C@H]1CCC[C@@H]1NC(=O)[C@H]1CCC[C@@H]1N [H12 ME]"
  TEST_TARGET: "Gal-1 (Homo sapiens)"
  EXPERIMENTAL_RESULT: 3.74
- COMPOUND: "CC(C)C[C@@H](CC(=O)N[C@H]1CCC[C@@H]1C(=O)N[C@H]1CCC[C@@H]1C(N)=O)NC(=O)[C@H]1CCC[C@@H]1NC(=O)[C@H]1CCC[C@@H]1NC(=O)C[C@H](CC(=O)O)NC(=O)[C@H]1CCC[C@@H]1NC(=O)[C@H]1CCC[C@@H]1N [H12 DL]"
  TEST_TARGET: "Gal-1 (Homo sapiens)"
  EXPERIMENTAL_RESULT: 3.60
- COMPOUND: "CC(C)[C@@H](CC(=O)N[C@H]1CCC[C@@H]1C(=O)N[C@H]1CCC[C@@H]1C(N)=O)NC(=O)[C@H]1CCC[C@@H]1NC(=O)[C@H]1CCC[C@@H]1NC(=O)C[C@H](CCCNC(=N)N)NC(=O)[C@H]1CCC[C@@H]1NC(=O)[C@H]1CCC[C@@H]1N [H12 RV]"
  TEST_TARGET: "Gal-1 (Homo sapiens)"
  EXPERIMENTAL_RESULT: 3.65

Query :: // pKd lookup, key: CC(C)[C@@H](CC(=O)N[C@H]1CCC[C@@H]1C(=O)N[C@H]1CCC[C@@H]1C(=O)N[C@H](CC(=O)N[C@H]1CCC[C@@H]1C(=O)N[C@H]1CCC[C@@H]1C(N)=O)Cc1ccc(O)cc1)NC(=O)[C@H]1CCC[C@@H]1NC(=O)[C@H]1CCC[C@@H]1N [H12 VY]
Result :: 3.38

Query :: Now this one: N=C(N)NCCC[C@@H](CC(=O)N[C@H]1CCC[C@@H]1C(=O)N[C@H]1CCC[C@@H]1C(=O)N[C@H](CC(=O)N[C@H]1CCC[C@@H]1C(=O)N[C@H]1CCC[C@@H]1C(N)=O)Cc1c[nH]c2ccccc12)NC(=O)[C@H]1CCC[C@@H]1NC(=O)[C@H]1CCC[C@@H]1N [H12 RW]
Result :: 3.90

Query :: Now this one: C[C@@H](CC(=O)N[C@H]1CCC[C@@H]1C(=O)N[C@H]1CCC[C@@H]1C(=O)N[C@H](CC(=O)N[C@H]1CCC[C@@H]1C(=O)N[C@H]1CCC[C@@H]1C(N)=O)Cc1ccccc1)NC(=O)[C@H]1CCC[C@@H]1NC(=O)[C@H]1CCC[C@@H]1N [H12 AF]
Result :: 3.37

Query :: Now this one: CSCC[C@@H](CC(=O)N[C@H]1CCC[C@@H]1C(=O)N[C@H]1CCC[C@@H]1C(N)=O)NC(=O)[C@H]1CCC[C@@H]1NC(=O)[C@H]1CCC[C@@H]1NC(=O)C[C@H](CCC(=O)O)NC(=O)[C@H]1CCC[C@@H]1NC(=O)[C@H]1CCC[C@@H]1N [H12 EM]
Result :: 3.60
